- tgt: UniProtKB Q9NYK1
- Sequence (Q9NYK1 27-1049): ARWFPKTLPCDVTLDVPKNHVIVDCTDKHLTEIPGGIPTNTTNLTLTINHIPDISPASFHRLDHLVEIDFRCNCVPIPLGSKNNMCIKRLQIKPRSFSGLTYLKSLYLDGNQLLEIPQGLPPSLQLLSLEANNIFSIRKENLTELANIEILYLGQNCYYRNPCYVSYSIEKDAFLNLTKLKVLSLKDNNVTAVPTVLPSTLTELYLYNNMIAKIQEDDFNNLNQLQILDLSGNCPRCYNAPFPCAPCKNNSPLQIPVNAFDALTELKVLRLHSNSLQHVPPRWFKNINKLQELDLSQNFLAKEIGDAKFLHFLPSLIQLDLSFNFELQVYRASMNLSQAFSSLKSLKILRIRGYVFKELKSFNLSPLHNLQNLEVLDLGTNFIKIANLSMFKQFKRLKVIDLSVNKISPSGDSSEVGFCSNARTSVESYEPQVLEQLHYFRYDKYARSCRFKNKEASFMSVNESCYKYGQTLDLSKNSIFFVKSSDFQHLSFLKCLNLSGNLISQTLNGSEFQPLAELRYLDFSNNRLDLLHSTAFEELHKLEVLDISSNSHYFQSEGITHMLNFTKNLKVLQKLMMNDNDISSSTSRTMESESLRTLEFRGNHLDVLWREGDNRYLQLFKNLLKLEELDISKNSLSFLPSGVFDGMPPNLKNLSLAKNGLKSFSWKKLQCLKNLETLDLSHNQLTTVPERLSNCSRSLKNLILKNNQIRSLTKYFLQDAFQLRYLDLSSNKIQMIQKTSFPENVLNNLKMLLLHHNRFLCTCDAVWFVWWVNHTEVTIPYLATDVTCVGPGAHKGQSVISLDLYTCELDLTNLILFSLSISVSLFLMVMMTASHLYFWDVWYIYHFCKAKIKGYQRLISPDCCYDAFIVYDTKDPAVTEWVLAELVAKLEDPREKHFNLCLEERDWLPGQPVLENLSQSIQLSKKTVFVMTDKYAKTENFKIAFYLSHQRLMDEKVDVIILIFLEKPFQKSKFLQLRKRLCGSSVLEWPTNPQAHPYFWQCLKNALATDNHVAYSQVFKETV
- method.notes: HEK-Blue TLR7 reporter assay (TLR7 agonism)
- condition.info: HEK-Blue TLR7 cells, SEAP reporter, 18 h treatment
Catalogue of molecules with associated pEC50
Formally, pEC50 is defined as -log10 of the concentration c, with c in mol/L.

Below are worked cases with known answers.
CCCCOc1nc(N)c2nc(O)n(Cc3ccccc3)c2n1 [Compound B, reference compound]; 6.32
CCCCOc1nc(N)c2nc(O)n(Cc3ccc(-c4cnn(C5CNC5)c4)cc3)c2n1; 7.59
CCCCOc1nc(N)c2nc(O)n(Cc3ccc(-c4cnn(CCNC5CCC5)c4)cc3)c2n1; 8.12
CCCCOc1nc(N)c2nc(O)n(Cc3ccc(-c4cnn(CC(=O)NC5CNC5)c4)cc3)c2n1; 7.62
CCCCOc1nc(N)c2nc(O)n(Cc3ccc(-c4nc(CO)co4)cc3)c2n1; 7.00

The reported value for "CCCCOc1nc(N)c2nc(O)n(Cc3ccc(-c4cnn(CCO)c4)cc3)c2n1" in terms of pEC50 is 7.80
